Target: T1, human eukaryotic translation initiation factor 4E (eIF4E), full-length (human, UniProt P06730 2-217)
T1 construct: mature; For SPR it was amine-coupled to a CM5 chip with m7GTP present in a 2:1 ratio. 'mature' is used here for full length; also called full length eIF4E
T1 sequence (P06730 2-217): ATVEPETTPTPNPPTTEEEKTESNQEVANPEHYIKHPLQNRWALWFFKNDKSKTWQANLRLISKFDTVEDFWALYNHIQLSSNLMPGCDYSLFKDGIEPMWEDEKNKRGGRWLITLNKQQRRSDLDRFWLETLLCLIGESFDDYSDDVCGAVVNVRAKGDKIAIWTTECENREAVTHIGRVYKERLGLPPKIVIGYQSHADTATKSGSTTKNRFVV
Test: SPR, Biacore T100, eIF4E immobilised on CM5, peptide as analyte, kinetic 1:1 fit
Non-standard residues stand in square brackets, D forms with d. Abu = CC[C@H](N)C(=O)O; Aib = CC(C)(N)C(=O)O
QUANTITY KIND: Kd (nM)
// return numeric value only (unit: nM, not printed)

// query Kd value for entry Ac-KKRYSR[Aib]QLL[Aib]L-NH2 (Printed KKRYSRXQLLXL, X = AIB; also called AIB derivative of sTIP-04) [TIP-04]
22

// query Kd value for entry Ac-KKRYSREFLLGF-NH2 (also called eIF4G1^D5S; linear template peptide) [eIF4G^D5S]
99.9

// query Kd value for entry Ac-KKRYSR[Aib]FLL[Aib][Abu]-NH2 (SMILES CC[C@H](NC(=O)C(C)(C)NC(=O)[C@H](CC(C)C)NC(=O)[C@H](CC(C)C)NC(=O)[C@H](Cc1ccccc1)NC(=O)C(C)(C)NC(=O)[C@H](CCCNC(=N)N)NC(=O)[C@H](CO)NC(=O)[C@H](Cc1ccc(O)cc1)NC(=O)[C@H](CCCNC(=N)N)NC(=O)[C@H](CCCCN)NC(=O)[C@H](CCCCN)NC(C)=O)C(N)=O, Printed KKRYSRXFLLX&) [TIP-01^F12&]
111
